- test summary: Fraction unbound in human plasma after 4 hrs by equilibrium dialysis method
- Assay type: ADME, cell-free
endpoint: fraction unbound at 4 h
No unit in the answer, please; the number alone is enough.

// known answers, use as guide
smiles entry	fraction unbound at 4 h
COc1ccc(-c2cc(C(N)=O)nc3cc(COc4cnc(C)nc4)sc23)cc1	0.01
NC(=O)c1cc(-c2ccc(F)cc2)n2nc(COc3ccnc(C(F)(F)F)c3)cc2n1	0.01
C[C@@H]1CN(Cc2cc3nc(C(N)=O)cc(-c4ccc(F)cc4)c3s2)C[C@H](C)O1	0.01
NC(=O)c1cc(-c2ccc(F)cc2)n2nc(CCc3ccnc(C(F)(F)F)c3)cc2n1	0.02

Consider the record given below.
Please report the recorded fraction unbound at 4 h for Cc1ccc(OCc2cc3nc(C(N)=O)cc(-c4ccc(F)cc4)c3s2)cn1 . 0.05
